Please respond with reported pEC50 for every item in the list.
- assayed-target: Peroxisome proliferator-activated receptor alpha (Homo sapiens, UniProt Q07869)
- Sequence (Q07869 whole entry): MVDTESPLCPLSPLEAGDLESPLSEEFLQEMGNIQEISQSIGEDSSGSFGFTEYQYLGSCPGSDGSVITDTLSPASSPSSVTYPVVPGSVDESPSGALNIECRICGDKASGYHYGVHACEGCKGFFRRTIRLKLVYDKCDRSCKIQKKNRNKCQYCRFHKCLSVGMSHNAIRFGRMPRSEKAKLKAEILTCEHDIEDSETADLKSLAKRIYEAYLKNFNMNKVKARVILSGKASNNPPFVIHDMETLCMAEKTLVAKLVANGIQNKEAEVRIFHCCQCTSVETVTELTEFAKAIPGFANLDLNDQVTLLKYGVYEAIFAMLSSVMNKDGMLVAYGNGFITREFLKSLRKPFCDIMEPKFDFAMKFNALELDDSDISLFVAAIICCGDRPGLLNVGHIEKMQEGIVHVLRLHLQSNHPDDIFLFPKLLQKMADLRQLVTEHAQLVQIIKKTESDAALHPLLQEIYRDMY
- method-summary: Agonist activity at Gal4-fused human PPARalpha
Give bare numbers, as −log10 of the molar value.

Cc1ccc(NC(=O)CN(Cc2ccccc2)Cc2ccc(OC(C)(C)C(=O)O)cc2)c(C)c1
6.00

Parameter requested: pEC50. Apply to each item below.
1. CCCCN(CC(=O)Nc1ccc(C)cc1C)Cc1ccc(OC(C)(C)C(=O)O)cc1
2. Cc1ccccc1NC(=O)CN(Cc1ccc(OC(C)(C)C(=O)O)cc1)Cc1ccco1
3. CCCN(CC(=O)Nc1ccc(C)cc1C)Cc1ccc(OC(C)(C)C(=O)O)cc1

result:
1. 5.00
2. 5.70
3. 6.00

Parameter requested: pEC50. Apply to each item below.
1. Cc1ccc(NC(=O)CN(Cc2ccc(OC(C)(C)C(=O)O)cc2)Cc2ccco2)c(C)c1
2. COc1ccc(CN(CC(=O)Nc2ccc(C)cc2C)Cc2ccc(OC(C)(C)C(=O)O)cc2)cc1
3. COc1ccc(OC)c(NC(=O)CN(Cc2ccc(OC(C)(C)C(=O)O)cc2)Cc2ccco2)c1
4. CC(C)(Oc1ccc(CN(CC(=O)NCc2ccccc2Cl)Cc2ccco2)cc1)C(=O)O

result:
7.70
6.05
6.52
5.15

Measured values drawn from ChEMBL document CHEMBL1155498 for this set.
